Field: kcat/KM (M^-1s^-1), FX activation by FIXa in the Xase complex. Provide a value for each of the proteins that follow.
molecular target: Factor X (FX), P00742
Sequence (P00742 whole entry, looked up): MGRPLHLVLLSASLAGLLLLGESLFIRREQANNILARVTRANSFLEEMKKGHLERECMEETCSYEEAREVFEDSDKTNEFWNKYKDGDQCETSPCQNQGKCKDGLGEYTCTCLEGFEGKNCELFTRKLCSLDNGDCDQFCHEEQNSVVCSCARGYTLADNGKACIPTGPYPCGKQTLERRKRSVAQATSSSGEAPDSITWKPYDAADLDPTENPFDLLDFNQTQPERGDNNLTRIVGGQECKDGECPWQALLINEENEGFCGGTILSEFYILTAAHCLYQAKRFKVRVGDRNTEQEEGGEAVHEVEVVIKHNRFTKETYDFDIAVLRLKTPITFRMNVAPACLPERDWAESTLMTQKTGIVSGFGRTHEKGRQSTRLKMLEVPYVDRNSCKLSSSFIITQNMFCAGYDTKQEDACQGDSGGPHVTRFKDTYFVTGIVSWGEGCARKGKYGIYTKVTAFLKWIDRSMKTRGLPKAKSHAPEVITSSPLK
Answers are plain numbers, in M⁻¹ s⁻¹.

Protein: FIXa-Y155F/R318Y/R338E/R403E/E410N (protein) chain 1: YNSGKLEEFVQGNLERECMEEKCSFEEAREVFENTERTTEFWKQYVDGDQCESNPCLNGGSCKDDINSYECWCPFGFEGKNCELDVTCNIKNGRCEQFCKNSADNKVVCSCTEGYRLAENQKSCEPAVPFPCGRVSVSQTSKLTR chain 2: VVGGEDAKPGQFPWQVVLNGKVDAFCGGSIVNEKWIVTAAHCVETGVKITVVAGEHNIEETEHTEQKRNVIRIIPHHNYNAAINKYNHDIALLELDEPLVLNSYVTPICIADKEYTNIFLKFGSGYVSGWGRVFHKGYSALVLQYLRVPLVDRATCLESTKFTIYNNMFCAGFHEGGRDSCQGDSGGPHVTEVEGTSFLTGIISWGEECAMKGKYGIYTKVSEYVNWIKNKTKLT
Assay Result: 1.9e+08

// next entry
Retrieve kcat/KM (M^-1s^-1), FX activation by FIXa in the Xase complex measured for FIXa-R318Y/R403E/E410N (protein) chain 1: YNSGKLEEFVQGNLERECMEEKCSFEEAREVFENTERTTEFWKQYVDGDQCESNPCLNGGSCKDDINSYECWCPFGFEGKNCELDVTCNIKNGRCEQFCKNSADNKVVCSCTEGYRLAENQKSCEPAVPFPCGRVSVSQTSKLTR chain 2: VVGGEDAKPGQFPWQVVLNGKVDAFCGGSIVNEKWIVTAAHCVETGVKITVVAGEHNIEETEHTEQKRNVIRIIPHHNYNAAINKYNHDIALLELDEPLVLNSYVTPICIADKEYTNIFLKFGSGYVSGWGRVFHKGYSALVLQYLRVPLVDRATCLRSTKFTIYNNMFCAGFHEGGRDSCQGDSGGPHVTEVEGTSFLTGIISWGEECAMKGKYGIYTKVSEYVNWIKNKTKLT and print it.
2.5e+07
